Please go through the items and note down their pKd.
# System tested: DLG2_1, Q15700
# Assay summary: holdup assay
# Set-up: key: below the threshold = too weak to quantify, mostly under pKd 3.1 to 4
# Recorded conditions: plain residues with an end cap or a label only (N-terminal biotin on a linker: ttds)
Lab note: write the figure by itself, no unit.

Query block: GET /values?readout=pKd&item= SSLQSLETSV [ATP2B4, P23634]
Result block: 4.94

Query block: Please look up its pKd: RLPKIKETTV [FRMPD4, Q14CM0]
Result block: 5.32

Query block: For the binder RLQRRRETQV [HPV18-E6, P06463] , what pKd is on record?
Result block: 5.11

Query block: Given the binder SKPTRRETEV [HPV35-E6, P27228] , what is its reported pKd?
Result block: 4.91

Query block: Would you kindly share the measured pKd for RHTTSTETAV [HPV30-E6, P36809] ?
Result block: 4.84

Query block: Suppose we examine the binder QRQARSETLV [HPV59-E6, Q81964] ; what pKd value has been reported?
Result block: 4.52
